# % Toxicity (LDH Release) values compiled below
tested on: PBMCs; assay: Cytotoxicity towards PBMCs, lactate dehydrogenase (LDH) release assay (Tables 6, 7); settings: SPOT synthesized peptide ~25 μM, PBMCs from 3 human donors; Table 6
No end group written: not given here.
endpoint_name: % Toxicity (LDH Release)

                                   substance             endpoint_name  obs_value
 0  KIVIRIILQVIK-NH2 [Peptide 3015, KIVIRIILQVIK]  % Toxicity (LDH Release)      −3.8%
 1  IWLRLKVVLKRK-NH2 [Peptide 3006, IWLRLKVVLKRK]  % Toxicity (LDH Release)       2.4%
 2  VARWKIIIAKLW-NH2 [BFmax-5, VARWKIIIAKLW]  % Toxicity (LDH Release)         2%
 3               KKQKKIWRRILV-NH2 [Mmax- 16]  % Toxicity (LDH Release)       1.8%
 4  VLKIKVKIWVVK-NH2 [Peptide 3007, VLKIKVKIWVVK]  % Toxicity (LDH Release)         2%
 5   GRVLKIVWRKGR-NH2 [Mmax-3, GRVLKIVWRKGR]  % Toxicity (LDH Release)       4.2%
 6  RRQWRGWVRIWL-NH2 [Peptide 3005, RRQWRGWVRIWL]  % Toxicity (LDH Release)      −4.2%
 7  RRIIKILLWKLR-NH2 [Peptide 3021, RRIIKILLWKLR]  % Toxicity (LDH Release)      13.1%
 8               RQVRVKRWRARW-NH2 [Mmax- 18]  % Toxicity (LDH Release)      −4.9%
 9  LIVIQLLKKWWK-NH2 [Peptide 3020, LIVIQLLKKWWK]  % Toxicity (LDH Release)      10.2%
10                VKGAIKRGIWVK-NH2 [Imax- 5]  % Toxicity (LDH Release)         3%
11  IKWVLRKIVQII-NH2 [IBFmax-17, IKWVLRKIVQII]  % Toxicity (LDH Release)       3.6%
12  WQGWAKIWVVRI-NH2 [Peptide 3019, WQGWAKIWVVRI]  % Toxicity (LDH Release)      −3.1%
13  WAVRALKVKWAL-NH2 [Imax-20, WAVRALKVKWAL]  % Toxicity (LDH Release)      −2.7%
14  VIKWLLKILRAI-NH2 [Peptide 3001, VIKWLLKILRAI]  % Toxicity (LDH Release)      64.4%
15  QQVKWWLIRWLA-NH2 [IBFmax-11, QQVKWWLIRWLA]  % Toxicity (LDH Release)      −0.1%
16  VQRIIWLRVKIV-NH2 [Peptide 3023, VQRIIWLRVKIV]  % Toxicity (LDH Release)        −3%
17  IQRWWKVWLKVI-NH2 [Peptide 3004, IQRWWKVWLKVI]  % Toxicity (LDH Release)       5.1%
18   RARQIRWLRKRV-NH2 [Imin-4, RARQIRWLRKRV]  % Toxicity (LDH Release)      −4.9%
19  KKWQLLIKWKLR-NH2 [Peptide 3008, KKWQLLIKWKLR]  % Toxicity (LDH Release)      18.8%
20  KRLQWVKVKKIR-NH2 [BFmax-16, KRLQWVKVKKIR]  % Toxicity (LDH Release)       0.6%
21   VVGLRVRWVRLW-NH2 [Imin-3, VVGLRVRWVRLW]  % Toxicity (LDH Release)      −4.3%
22  QIIKVVWRAVII-NH2 [MILBFmax-8, QIIKVVWRAVII]  % Toxicity (LDH Release)      −2.3%

----------
test system: S. aureus (MRSA SAP0017); type: cell-based, Staphylococcus aureus; settings: SPOT synthesized peptide, ~12.5 μM, clinical MRSA strain, crystal violet assay
Non-standard residues stand in square brackets, D forms with d. No end group written: not given here. hArg = N=C(N)NCCCC[C@H](N)C(=O)O
endpoint_name: % Residual MRSA biofilm growth compared to untreated control

substance	obs_value
VRLIVAVHarIWRR (VRLIVAV[hArg]IWRR-NH2; N-terminus assumed; SMILES CC[C@H](C)[C@H](NC(=O)[C@H](CCCCNC(=N)N)NC(=O)[C@@H](NC(=O)[C@H](C)NC(=O)[C@@H](NC(=O)[C@@H](NC(=O)[C@H](CC(C)C)NC(=O)[C@H](CCCNC(=N)N)NC(=O)[C@@H](N)C(C)C)[C@@H](C)CC)C(C)C)C(C)C)C(=O)N[C@@H](Cc1c[nH]c2ccccc12)C(=O)N[C@@H](CCCNC(=N)N)C(=O)N[C@@H](CCCNC(=N)N)C(N)=O) [Peptide 1018-r32]	45%

----------
test system: E. coli (Ec); type: cell-based; details: Ec
No end group written: not given here.
# MIC E. coli values compiled below
endpoint_name: MIC E. coli (µg/mL)

In [3]: df
Out[3]:
                                   substance  units_text  cmp  obs_value
 0  LIVIQLLKKWWK-NH2 [Peptide 3020, LIVIQLLKKWWK]       µg/mL    =          2
 1  VQRIIWLRVKIV-NH2 [Peptide 3023, VQRIIWLRVKIV]       µg/mL    =          2
 2  IKIIWKALGQVI-NH2 [Peptide 3024, IKIIWKALGQVI]       µg/mL    =          4
 3  LWQLWLKLKLKG-NH2 [Peptide 3013, LWQLWLKLKLKG]       µg/mL    >         64
 4  KKWQLLIKWKLR-NH2 [Peptide 3008, KKWQLLIKWKLR]       µg/mL    =          8
 5  LAGLIVKWAGVR-NH2 [Peptide 3017, LAGLIVKWAGVR]       µg/mL    >         64
 6  VIKWLLKILRAI-NH2 [Peptide 3001, VIKWLLKILRAI]       µg/mL    =          4
 7  QLARLARVVWGL-NH2 [Peptide 3010, QLARLARVVWGL]       µg/mL    >         64
 8  AVKWLGWILAKK-NH2 [Peptide 3016, AVKWLGWILAKK]       µg/mL    =         64
 9  IQRWWKVWLKVI-NH2 [Peptide 3004, IQRWWKVWLKVI]       µg/mL    =          4
10  WKKVQWLKRLLL-NH2 [Peptide 3003, WKKVQWLKRLLL]       µg/mL    =          4
11  ILVRWIRWRIQW-NH2 [Peptide 3002, ILVRWIRWRIQW]       µg/mL    =          8
12  IAWQLLWGWRVR-NH2 [Peptide 3022, IAWQLLWGWRVR]       µg/mL    =          8
13  AVAKWALKLWKQ-NH2 [Peptide 3009, AVAKWALKLWKQ]       µg/mL    >         64
14  RVKAIKWRKIVV-NH2 [Peptide 3012, RVKAIKWRKIVV]       µg/mL    =         64
15  WVGVIIKWGLKL-NH2 [Peptide 3018, WVGVIIKWGLKL]       µg/mL    =          4
16  WQGWAKIWVVRI-NH2 [Peptide 3019, WQGWAKIWVVRI]       µg/mL    =          4
17  KIQRRAWKQWRK-NH2 [Peptide 3014, KIQRRAWKQWRK]       µg/mL    =         64
18  RRQWRGWVRIWL-NH2 [Peptide 3005, RRQWRGWVRIWL]       µg/mL    =          4
19  RRIIKILLWKLR-NH2 [Peptide 3021, RRIIKILLWKLR]       µg/mL    <          1
20  KIVIRIILQVIK-NH2 [Peptide 3015, KIVIRIILQVIK]       µg/mL    >         64

----------
Tested on: Streptococcus dysgalactiae (Sd)
Type: cell-based
Protocol: The same strains as in Table 18 were assessed for Minimal Biofilm Inhibitory Concentrations (MBIC) (Table 19). Italics=excellent activity (less than or equal to 4 μg/ml). ND=Not determined. Peptides 3013, 3015 and 3016 inhibited biofilm growth in the largest number of bacterial strains (5, 5 and 6 out of 13 strains, respectively).
No end group written: not given here.
endpoint_name: MBIC (µg/mL)

>>> print(df.to_string())
                                  substance  units_text  cmp  obs_value
0  LWQLWLKLKLKG-NH2 [Peptide 3013, LWQLWLKLKLKG]       µg/mL    =          2
1  QLARLARVVWGL-NH2 [Peptide 3010, QLARLARVVWGL]       µg/mL    =         16
2  AVAKWALKLWKQ-NH2 [Peptide 3009, AVAKWALKLWKQ]       µg/mL    =         16
3  AVKWLGWILAKK-NH2 [Peptide 3016, AVKWLGWILAKK]       µg/mL    >         64
4  KIVIRIILQVIK-NH2 [Peptide 3015, KIVIRIILQVIK]       µg/mL    =          4
5  LAGLIVKWAGVR-NH2 [Peptide 3017, LAGLIVKWAGVR]       µg/mL    >         64
